- Test system: COLO 205 colon
- ASSAY_REMARKS: NCI-60 one-dose screen, 48 h (100 = growth as untreated, 0 = no growth, -100 = all killed)
- REPORTED_CONDITIONS: 10 µM unless noted
The panel holds about 83,000 compounds, 20% with a hit somewhere; the sample as a whole holds those more often.
Each entry below carries its reported growth.

- STRUCTURE: "COP(=O)(OC)C(c1ccc(O)cc1)(c1ccc(O)cc1)c1ccc(O)cc1"
  growth [%]: 123
- STRUCTURE: "COc1cnc2c(c1)C(=O)c1c-2n(CCCNC2=NCCS2)c(=O)c2cc(F)ccc12"
  growth [%]: 22.1
- STRUCTURE: "Nc1nc2c(c(=O)[nH]1)C1(C(=O)Nc3ccccc31)c1c(nc(N)[nH]c1=O)N2"
  growth [%]: 102
- STRUCTURE: "O=c1[nH]cc(Nc2cc(Cl)c3nonc3c2[N+](=O)[O-])c(=O)[nH]1"
  growth [%]: 109
- STRUCTURE: "COc1cccc(N2CCN(CC(=O)N3CCN(c4nnc(-c5ccc(Cl)cc5)c(-c5ccc(Cl)cc5)n4)CC3)CC2)c1"
  growth [%]: 78.6

###

- System: SW-620 colon
- ASSAY_REMARKS: NCI-60 one-dose screen, 48 h
- REPORTED_CONDITIONS: 10 µM unless noted
The panel holds about 83,000 compounds, 20% with a hit somewhere; the sample as a whole holds those more often. Activity calls are given as the source filed them. How the source made its calls: active means growth percent below 10; inactive means the rest.
Outcome codes: 1 = active, -1 = inactive

- COMPOUND: "O=C(Nc1nc(-c2ccc(Cl)cc2)cs1)c1cc(-c2ccc(Br)cc2)nc2ccc(Cl)cc12"
  LABEL_CLASS: -1
- COMPOUND: "O=C(Nc1ccc(Cl)cc1)Nc1nc2ccc(OC(F)(F)F)cc2o1"
  LABEL_CLASS: -1
- COMPOUND: "COc1cc(C(=O)/C=C/c2cccc(Nc3ccnc4cc(Cl)ccc34)c2)cc(OC)c1OC"
  LABEL_CLASS: 1
- COMPOUND: "COc1ccc(Oc2ccccc2NC(=O)CNC(=O)c2cccc3ccccc23)cc1"
  LABEL_CLASS: -1
- COMPOUND: "CSc1nc2nc3c(c(-c4ccc(C)cc4)c2c(=O)[nH]1)CN(C)C/C3=C\\c1ccc(C)cc1"
  LABEL_CLASS: -1
- COMPOUND: "O=C(Nc1ccccc1OC(=O)c1ccccc1)c1ccccc1"
  LABEL_CLASS: -1
- COMPOUND: "Cc1nn(-c2ccccc2)cc1/C=C1\\SC(N2CCCCC2)=NC1=O"
  LABEL_CLASS: -1
- COMPOUND: "C=C1CC[C@@H]2[C@](C)(COC(C)=O)[C@H](OC(C)=O)CC[C@@]2(C)[C@@H]1CC(NCc1ccccc1)C1=CCOC1=O (stereo partly specified)"
  LABEL_CLASS: -1
- COMPOUND: "COc1cnc2c(c1)C(=O)c1c-2n(CCCNC(C)C)c(=O)c2cc(F)ccc12"
  LABEL_CLASS: 1
- COMPOUND: "NC(=NCCCCCCN=C(N)/N=C(\\N)Nc1ccc(Cl)cc1)/N=C(\\N)Nc1ccc(Cl)cc1"
  LABEL_CLASS: -1
- COMPOUND: "O=c1[nH]cc(Nc2cc(Cl)c3nonc3c2[N+](=O)[O-])c(=O)[nH]1"
  LABEL_CLASS: -1
- COMPOUND: "O=C(COc1ccc(/C=C2\\Oc3ccc4ccccc4c3C2=O)cc1)c1ccc(Cl)cc1"
  LABEL_CLASS: -1
- COMPOUND: "C[N+]1(C)C2CC[C@@H]1CC(OC(=O)C(O)c1ccccc1)C2 (stereo partly specified)"
  LABEL_CLASS: -1
- COMPOUND: "CNCCCn1c2c(c3ccc(F)cc3c1=O)C(=O)c1cc(OC)cnc1-2"
  LABEL_CLASS: 1
- COMPOUND: "C[C@H]1O[C@@H](O[C@H]2[C@@H](O)C[C@H](O[C@H]3[C@@H](O)C[C@H](O[C@H]4CC[C@]5(C)C6CC[C@]7(C)[C@@H](C8=CC(=O)OC8)CC[C@]7(O)C6CC[C@@H]5C4)O[C@@H]3C)O[C@@H]2C)C[C@H](O)[C@@H]1O (stereo partly specified)"
  LABEL_CLASS: 1
- COMPOUND: "CCOC(=O)c1sc(NC(=O)COc2ccc(/C=C3\\CCc4cc(OC)ccc4C3=O)cc2)nc1C"
  LABEL_CLASS: -1
- COMPOUND: "N#Cc1ccc(-c2csc(Nc3ccc4nc5n(c(=O)c4c3)CCC5)n2)cc1"
  LABEL_CLASS: -1
- COMPOUND: "Cc1nn(-c2ccccc2)c2nc(N)c(C3=NCCO3)nc12"
  LABEL_CLASS: -1
- COMPOUND: "Nc1nc2c(c(=O)[nH]1)C1(C(=O)Nc3ccccc31)c1c(nc(N)[nH]c1=O)N2"
  LABEL_CLASS: -1
- COMPOUND: "O=C(NCCNC(=O)Oc1cccc2ccccc12)Oc1cccc2ccccc12"
  LABEL_CLASS: -1
- COMPOUND: "O=C1CSC(c2ccccc2Cl)N1c1nnc(Cn2nnc3ccccc32)o1 (stereo unspecified)"
  LABEL_CLASS: -1
- COMPOUND: "CN(C)CCCNc1nn2c(=O)c3ccccc3nc2c2ccccc12"
  LABEL_CLASS: -1
- COMPOUND: "CSc1nc(N)c2c(n1)N(C)C=NS2(=O)=O"
  LABEL_CLASS: -1
- COMPOUND: "CC(=O)N1N=C(c2ccc(Nc3ccnc4cc(Cl)ccc34)cc2)CC1c1ccc(Cl)cc1 (stereo unspecified)"
  LABEL_CLASS: -1
- COMPOUND: "O=C(Nc1ccccc1)P(=O)(O)c1ccccc1"
  LABEL_CLASS: -1
- COMPOUND: "COc1cc(/C=N/NC(=O)c2ccc(C(F)(F)F)nc2Nc2ccc(Cl)cc2C)ccc1O"
  LABEL_CLASS: -1

###

Each entry below carries its reported growth.
- Test system: MALME-3M melanoma
- ASSAY_REMARKS: NCI-60 one-dose screen, 48 h (100 = growth as untreated, 0 = no growth, -100 = all killed)
- REPORTED_CONDITIONS: 10 µM unless noted
The panel holds about 83,000 compounds, 20% with a hit somewhere; the sample as a whole holds those more often.

- COMPOUND: "O=C1/C(=C\\c2coc3ccccc3c2=O)c2ccccc2N1c1c(Cl)cccc1Cl"
  growth / %: 83.8
- COMPOUND: "Cc1[nH]ccc2cc3nc4ccccc4c3cc12"
  growth / %: 29.8
- COMPOUND: "COc1cc(/C=N/NC(=O)c2ccc(C(F)(F)F)nc2Nc2cc(Cl)ccc2C)cc(OC)c1OC"
  growth / %: 61.8
- COMPOUND: "CC1c2ccccc2-c2ccccc2N1C (stereo not drawn)"
  growth / %: 99.4
- COMPOUND: "Cc1cc(C)nc(NS(=O)(=O)c2ccc(Nc3nc4nc(SCc5ccccc5)nc(-c5ccc(O)cc5)c4c(=O)[nH]3)cc2)n1"
  growth / %: 67.7
- COMPOUND: "O=c1[nH]cc(Nc2cc(Cl)c3nonc3c2[N+](=O)[O-])c(=O)[nH]1"
  growth / %: 109
- COMPOUND: "Cc1cnc2nc(-c3ccc(N(C)C)cc3)cn2c1"
  growth / %: 97.8
- COMPOUND: "Nc1nc(NC2CC2)c2ncn(C3C=CC(CO)C3)c2n1 (stereo not drawn)"
  growth / %: 105
- COMPOUND: "Cc1cc(=O)[nH]c(/C(=N/Nc2ccccc2)C(=O)c2ccc(Cl)cc2)n1"
  growth / %: 114
- COMPOUND: "Nc1ccn(C2O[C@H](CO)[C@@H](O)[C@@H]2O)c(=O)n1 (stereo partly drawn)"
  growth / %: 57.2
- COMPOUND: "Cc1n(Cc2ccc3ccccc3c2)c2ccccc2[n+]1Cc1ccc2ccccc2c1"
  growth / %: -39.7
- COMPOUND: "CN1CCN(c2nc3scc(-c4ccccc4)c3c(=O)[nH]2)CC1"
  growth / %: 86.4
- COMPOUND: "C1=C(Cc2ccccc2)n2cnc3ncnc(c32)S1"
  growth / %: 68
- COMPOUND: "CC(=O)N1N=C(c2ccc3c(c2)OCO3)CC1c1c(C)nn(-c2ccccc2)c1N(C)Cc1ccccc1 (stereo not drawn)"
  growth / %: 84.8
- COMPOUND: "CC1(C)CC2(C)CC(=O)C1C(C(=O)O)C2C(=O)O (stereo not drawn)"
  growth / %: 110
- COMPOUND: "O=C1C2C(C(=O)N1CC[Se][Se]CCN1C(=O)C3C(C1=O)[C@H]1C=C[C@@H]3C1)[C@H]1C=C[C@@H]2C1 (stereo partly drawn)"
  growth / %: -35.6
- COMPOUND: "Cc1ncc(C(=O)Nc2ccc(CN3CCN(C)CC3)c(C(F)(F)F)c2)cc1C#Cc1cncc2ncccc12"
  growth / %: 0.477
- COMPOUND: "C/C(=C\\CCc1ccoc1)CC/C=C(\\C)CCCN1CCSCC1"
  growth / %: 104
- COMPOUND: "CCCCCN1C(=O)CCC1=O"
  growth / %: 90.3
- COMPOUND: "Nc1nc(Nc2ccccc2SSc2ccccc2Nc2nc(N)nc(C(Cl)(Cl)Cl)n2)nc(C(Cl)(Cl)Cl)n1"
  growth / %: 75
- COMPOUND: "COc1cnc2c(c1)C(=O)c1c-2n(CCCn2ccnc2)c(=O)c2cc(F)ccc12"
  growth / %: -52.2
- COMPOUND: "COc1ccc2c(c1)[n+](=O)c(/C=C/C(=O)c1cc(OC)c(OC)c(OC)c1)c(C)n2[O-]"
  growth / %: 86
- COMPOUND: "COc1ccc(-c2cc(-c3cccnc3)nc(S(=O)(=O)CC(=O)Nc3ccc(C)cc3)c2C#N)cc1OC"
  growth / %: 94.7
